Tested on: ACHN renal
Test: NCI-60 one-dose screen, 48 h (100 = growth as untreated, 0 = no growth, -100 = all killed)
Settings: 10 µM unless noted
Compounds without any hit were thinned out: in the full panel of roughly 83,000, 20% have a hit.
Criterion: growth strictly under 90%. Met: fulfilled. Not met: not fulfilled.

molecule	tested on	label class
CC(C)(Sc1cc(C(C)(C)C)c(O)c(C(C)(C)C)c1)Sc1cc(C(C)(C)C)c(OC(=O)CCCC(=O)O)c(C(C)(C)C)c1	ACHN renal	fulfilled
O=C(O)c1cn(C2CC2)c2cc(N3CCN(C(=O)N(c4ccccc4)c4nc(-c5ccccc5)cs4)CC3)c(F)cc2c1=O	ACHN renal	fulfilled

In: # check: growth < 90% for O=c1scc(-c2ccc(C(F)(F)F)cc2)s1
Out: not fulfilled

In: # check: growth < 90% for CCC(C)N(CCNc1cc(OC)cc2cccnc12)CC(C)C (stereo not drawn)
Out: fulfilled

In: # check: growth < 90% for COCCn1cc(-c2nc(-c3cc4cccnc4[nH]3)cs2)c2cc(OC)ccc21
Out: fulfilled

In: # check: growth < 90% for Ic1ccc(OCCCCn2ccnc2)cc1
Out: fulfilled

In: # check: growth < 90% for O=C1/C(=C\c2ccc3nccnc3c2)SC(=S)N1CCc1ccc(O)cc1
Out: not fulfilled

In: # check: growth < 90% for O=C(/C=C/c1cccc(Cl)c1)c1ccc(Nc2nc(Nc3ccc(F)cc3)nc(Nc3ccc(Cl)cc3)n2)cc1
Out: not fulfilled

In: # check: growth < 90% for O=C(CN1CCCCC1)Nc1nc(-c2cc3ccccc3oc2=O)cs1
Out: not fulfilled

In: # check: growth < 90% for CCOC(=O)c1c2c(n3cccc(F)c13)C(=O)c1ncccc1C2=O
Out: fulfilled

In: # check: growth < 90% for C/C(Cc1ccc(Cl)cc1)=C(\c1ccc(O)cc1)c1ccc(Cl)cc1
Out: not fulfilled

In: # check: growth < 90% for O=S(=O)(NCCNc1nccc(-c2c(-c3ccc(F)c(O)c3)nc3occn23)n1)c1ccc(Cl)cc1
Out: fulfilled

In: # check: growth < 90% for CC(C)=CC(=O)OCC(=O)O[C@@H]1C[C@]2(C(C)C)O[C@@]1(C)[C@@H]1CC[C@@H](C)[C@H]1[C@@H]2OC(=O)/C=C/c1ccccc1
Out: fulfilled

In: # check: growth < 90% for Nc1nc(-c2ccc(Cl)cc2)nc2c1sc(=S)n2-c1ccccc1
Out: fulfilled

In: # check: growth < 90% for C=C(C)[C@@H]1CCC[C@]2(COS(=O)(=O)c3ccc(C)cc3)CC[C@]3(C)[C@@H](CC[C@@H]4[C@@]5(C)CCCNC(C)(C)[C@@H]5CC[C@]43C)[C@@H]12
Out: fulfilled

In: # check: growth < 90% for CN(c1cc2ncc(=O)[nH]c2cc1NC(N)=NCc1ccc(Cl)cc1)C1CCCCC1
Out: not fulfilled

In: # check: growth < 90% for Cc1sc2nc(NCCc3c[nH]c4ccc(Cl)cc34)[nH]c(=O)c2c1C
Out: fulfilled

In: # check: growth < 90% for COc1ccc(OC)c(Nc2nnc(-c3ccc(O)c(OC)c3)o2)c1
Out: fulfilled

In: # check: growth < 90% for Nc1n[nH]c2cccc(C#Cc3cccc(C(=O)Nc4cc(C(F)(F)F)cc(C(F)(F)F)c4)c3)c12
Out: fulfilled

In: # check: growth < 90% for CC(=O)O[C@@H]1C[C@]2(C(C)C)O[C@@]1(C)[C@@H]1CCC(C)=C1[C@@H]2OC(=O)/C=C/c1ccccc1
Out: fulfilled

In: # check: growth < 90% for CCCCCC(/C=N\NC(=S)N/N=C/C(=C/c1ccccc1)CCCCC)=C\c1ccccc1
Out: fulfilled

In: # check: growth < 90% for COc1ccc(-c2noc(C(=O)O)c2-c2cc(OC)c(OC)c(OC)c2)cc1
Out: fulfilled
